# Assay system: High affinity choline transporter 1 (Homo sapiens, UniProt Q9GZV3)
# Sequence (Q9GZV3 whole entry): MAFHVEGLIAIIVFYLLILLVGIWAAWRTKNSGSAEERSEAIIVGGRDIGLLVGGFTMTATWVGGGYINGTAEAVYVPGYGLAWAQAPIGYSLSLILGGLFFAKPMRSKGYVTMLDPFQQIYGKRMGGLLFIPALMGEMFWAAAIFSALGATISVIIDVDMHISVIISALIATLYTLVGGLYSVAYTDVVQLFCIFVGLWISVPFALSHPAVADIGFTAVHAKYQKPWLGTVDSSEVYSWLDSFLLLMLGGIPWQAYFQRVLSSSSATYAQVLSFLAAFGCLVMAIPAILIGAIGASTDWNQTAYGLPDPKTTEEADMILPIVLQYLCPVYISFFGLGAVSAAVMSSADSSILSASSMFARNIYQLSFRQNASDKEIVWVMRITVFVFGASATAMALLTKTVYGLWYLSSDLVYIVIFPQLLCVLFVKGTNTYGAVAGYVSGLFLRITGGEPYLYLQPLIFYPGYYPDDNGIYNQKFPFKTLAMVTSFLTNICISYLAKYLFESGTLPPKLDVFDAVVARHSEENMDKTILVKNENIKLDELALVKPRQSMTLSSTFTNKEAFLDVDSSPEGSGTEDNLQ
# Assay details: Inhibition of [3H]choline uptake at human choline transporter expressed in HEK293 cells preincubated for 15 mins followed by [3H]choline addition measured after 10 to 15 mins by scintillation proximity assay
pIC50: −log10 of the molar value.
Quantity kind: pIC50

- CC(C)c1cc(CNC(=O)c2ccc(Cl)c(OC3CCN(C)CC3)c2)on1: 6.57
- CC(C)c1cc(CNC(=O)c2ccc(C#N)c(OC3CCN(C)CC3)c2)on1: 5.47
- CC(C)c1cc(CNC(=O)c2ccc(F)c(OC3CCN(C)CC3)c2)on1: 6.33

a = CC(C)c1cc(CNC(=O)c2cccc(OC3CCN(C(C)C)CC3)c2)on1
b = CC(C)c1cc(CNC(=O)c2cccc(OC3CCN(C)CC3)c2)on1
Sorting ascending by pIC50, which comes first: a or b ? // caller expects the label of the chosen entry a
(a: 5.74, b: 6.19)

* * *

# Assay details: Fraction unbound in rat plasma after 4 hrs by LC-MS/MS based equilibrium dialysis method
# Format: ADME, cell-free
Quantity kind: fraction unbound at 4 h
Number, no unit, nothing else.

molecule `CC(C)c1cc(CNC(=O)c2ccc(Cl)c(OC3CCN(C)CC3)c2)on1` , fraction unbound at 4 h observed: 0.19

* * *

# Assay details: Ratio of unbound concentration in cannulated Sprague-Dawley rat brain to plasma at 1 mg/kg, iv
# Assay type: ADME, organism-based
# Measurement setup: read-out: K(p,uu,brain)
Quantity kind: Kp uu
Number, no unit, nothing else.

compound `CC(C)c1cc(CNC(=O)c2ccc(Cl)c(OC3CCN(C)CC3)c2)on1` , Kp uu observed: 0.71

* * *

# Assay details: Fraction unbound in rat brain after 4 hrs by LC-MS/MS based equilibrium dialysis method
# Type: ADME, tissue-based
Quantity kind: fraction unbound at 4 h
Number, no unit, nothing else.

* COc1ccc(C(=O)NCc2cc(C(C)C)no2)cc1OC1CCN(C)CC1 | 0.36

compound `CC(C)c1cc(CNC(=O)c2ccc(Cl)c(OC3CCN(C)CC3)c2)on1` , fraction unbound at 4 h observed: 0.65

* * *

# Assay details: Half life in cannulated Sprague-Dawley rat plasma at 1 mg/kg, iv by LC-MS/MS analysis
# Type: ADME, organism-based
# Measurement setup: Sprague-Dawley, plasma
Quantity kind: half-life (h)
Your answer should be a plain number; it is taken to be in h.

compound `CC(C)c1cc(CNC(=O)c2ccc(Cl)c(OC3CCN(C)CC3)c2)on1` , half-life observed: 1.95

* * *

# Assay details: Plasma concentration in cannulated Sprague-Dawley rat at 1 mg/kg, iv after […] by LC-MS/MS analysis
# Format: ADME, organism-based
Below, each entry is listed with its recorded concentration at […].
Your answer should be a plain number; it is taken to be in ng/mL.

- COc1ccc(C(=O)NCc2cc(C(C)C)no2)cc1OC1CCN(C)CC1: 129

Turning now to a further record.
compound `CC(C)c1cc(CNC(=O)c2ccc(Cl)c(OC3CCN(C)CC3)c2)on1` , concentration at […] observed: 47.2
